Record form. Attribute: pEC50. Fill in for each entry.
Target: T1, Aβ1-42 monomer (UniProt P05067 672-713)
T1 construct: domain: Aβ1-42
Experiment: ELISA; IgG2
Scale note: pEC50 = -log10(concentration in M).

// query Return reported pEC50; argument: antibody 19.3 N33T (antibody, IgG2, V domains shown, also called 19.3T33) VH: EVQLVESGGGLVQPGGSLRLSCAASGFTFSSFGMHWVRQAPGKGLEWVAYISRGSSTIYYADTVKGRFTISRDNAKNSLYLQMNSLRAEDTAVYYCARGITTALDYWGQGTLVTVSS VL: DVVMTQSPLSLPVTPGEPASISCRSSQSIVHSTGNTYLEWYLQKPGQSPQLLIYKASNRFSGVPDRFSGSGSGTDFTLKISRVEAEDVGVYYCFQGSRLGPSFGQGTKLEIL
// result 6.61

// query Another: anti-ADDL antibody 19.3 (antibody, V domains shown, copies: 2 + 2) VH: EVQLVESGGGLVQPGGSLRLSCAASGFTFSSFGMHWVRQAPGKGLEWVAYISRGSSTIYYADTVKGRFTISRDNAKNSLYLQMNSLRAEDTAVYYCARGITTALDYWGQGTLVTVSS VL: DVVMTQSPLSLPVTPGEPASISCRSSQSIVHSNGNTYLEWYLQKPGQSPQLLIYKASNRFSGVPDRFSGSGSGTDFTLKISRVEAEDVGVYYCFQGSRLGPSFGQGTKLEIKR
// result 7.74

// query Entry antibody 19.3 N33S (antibody, IgG2, V domains shown, also called 19.3S33) VH: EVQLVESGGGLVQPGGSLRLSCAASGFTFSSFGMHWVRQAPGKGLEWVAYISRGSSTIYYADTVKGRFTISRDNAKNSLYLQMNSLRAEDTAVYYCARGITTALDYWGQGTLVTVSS VL: DVVMTQSPLSLPVTPGEPASISCRSSQSIVHSSGNTYLEWYLQKPGQSPQLLIYKASNRFSGVPDRFSGSGSGTDFTLKISRVEAEDVGVYYCFQGSRLGPSFGQGTKLEIL please
// result 6.82

// query Can you check antibody 19.3 N33D (antibody, V domains shown, Made as a control) VH: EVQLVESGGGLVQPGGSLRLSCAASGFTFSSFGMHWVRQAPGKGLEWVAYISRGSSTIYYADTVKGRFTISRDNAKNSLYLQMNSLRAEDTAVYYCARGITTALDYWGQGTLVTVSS VL: DVVMTQSPLSLPVTPGEPASISCRSSQSIVHSDGNTYLEWYLQKPGQSPQLLIYKASNRFSGVPDRFSGSGSGTDFTLKISRVEAEDVGVYYCFQGSRLGPSFGQGTKLEIL next?
// result 7.55
